Assay: Intrinsic clearance in human microsomes
Assay type: ADME, Microsome
Overview of reported log10 CLint scaled across a group of compounds:
Heads up, the numbers here are log10 of CLint scaled in mL/min/kg units.

Worked examples follow.
C=CCn1c(=O)c2cnc(Nc3ccc(N4CCN(C)CC4)cc3)nc2n1-c1ccc2c(n1)C(O)(C1CC1)CC2 (single isomer, unassigned)	1.59
C=CCn1c(=O)c2cnc(Nc3ccc(N4CCN(C)CC4)cc3)nc2n1-c1ccc2c(n1)[C@@](C)(O)CC2	1.26
Cc1cn(-c2c(Cl)cccc2Cl)c(=O)c2cnc(Nc3ccc(N4CCN(C)CC4)cc3)nc12	1.59
C=CCn1c(=O)c2cnc(Nc3cccc(N4CCN(C)CC4)c3)nc2n1-c1ccc2c(n1)[C@@](O)(CC)CC2	2.13
C=CCn1c(=O)c2cnc(Nc3ccc4c(ccn4C4CCN(C)CC4)c3)nc2n1-c1ccc2c(n1)[C@@](O)(CC)CC2	2.43
C=CCn1c(=O)c2cnc(Nc3ccc(N4CCN(C)CC4)c(C)c3)nc2n1-c1ccc2c(n1)[C@](C)(O)CC2	1.90
C=CCn1c(=O)c2cnc(Nc3ccc(N4CCN(C)CC4)cc3)nc2n1-c1ccc2c(n1)[C@@](O)(C(F)F)CC2	1.67
C=CCn1c(=O)c2cnc(Nc3ccc(N4CCN(C)CC4)cc3)nc2n1-c1ccc2c(n1)[C@](C)(O)CCC2	1.26
C=CCn1c(=O)c2cnc(Nc3ccc(N4CCN(C)CC4)cc3)nc2n1-c1ccc2c(n1)[C@@](O)(CC)CCC2	1.85
C=CCn1c(=O)c2cnc(Nc3ccc(N4CCN(C)CC4)cc3)nc2n1-c1ccc2c(n1)C(C)(O)CO2 (single isomer, unassigned)	1.23

Task: I'd like to know its log10 CLint scaled. The compound in question is `C=CCn1c(=O)c2cnc(Nc3ccc(N4CCN(C)CC4)cc3)nc2n1-c1ccc2c(n1)[C@](C)(O)CC2`
Result: 1.30

Task: I'd like to know its log10 CLint scaled. The compound in question is `C=CCn1c(=O)c2cnc(Nc3ccc(N4CCN(C)CC4)cc3)nc2n1-c1ccc2c(n1)C(F)(F)CC2`
Result: 1.68

* * *

Assay: Intrinsic clearance in mouse microsomes
Assay type: ADME, Microsome
Overview of reported CLint scaled across a group of compounds:
Number only, in mL/min/kg; omit the unit.

Worked examples follow.
C=CCn1c(=O)c2cnc(Nc3ccc(N4CCN(C)CC4)cc3)nc2n1-c1ccc2c(n1)C(O)(C1CC1)CC2 (single isomer, unassigned)	78
C=CCn1c(=O)c2cnc(Nc3ccc(N4CCN(C)CC4)cc3)nc2n1-c1ccc2c(n1)C(O)(CC)CC2 (racemic)	74
C=CCn1c(=O)c2cnc(Nc3ccc(N4CCN(C)CC4)c(C)c3)nc2n1-c1ccc2c(n1)[C@@](O)(CC)CC2	191
C=CCn1c(=O)c2cnc(Nc3ccc(N4CCN(C)CC4)c(C)c3)nc2n1-c1ccc2c(n1)[C@](C)(O)CC2	121
C=CCn1c(=O)c2cnc(Nc3ccc(N4CCN(C)CC4)cc3)nc2n1-c1ccc2c(n1)[C@](C)(O)CCC2	66

Task: I'd like to know its CLint scaled. The compound in question is `C=CCn1c(=O)c2cnc(Nc3ccc(N4CCN(C)CC4)cc3)nc2n1-c1ccc2c(n1)C(F)(F)CC2`
Result: 293

Task: I'd like to know its CLint scaled. The compound in question is `C=CCn1c(=O)c2cnc(Nc3ccc4c(c3)CN(CCO)CC4)nc2n1-c1cccc(C(C)(C)O)n1`
Result: 307

Task: I'd like to know its CLint scaled. The compound in question is `C=CCn1c(=O)c2cnc(Nc3ccc4c(c3)CNCC43CC3)nc2n1-c1cccc(C(C)(C)O)n1`
Result: 1400
